Tested on: Pf Dd2^WT
Experiment: Parasite growth inhibition assay, erythrocytic stage
Format: cell-based, Plasmodium falciparum
Conditions: Plasmodium falciparum, DD2, Erythrocyte, 72 h, read-out: EC50 Pf Dd2^WT
measurement name: pEC50
Reminder that pEC50 is minus the log10 of a molar concentration.

- C[C@H]1[C@@H](CC(=O)NCC(=O)N[C@@H](CC(=O)NC(C)(C)C)C(=O)NCCNC(=O)c2cc(-c3ccccc3F)ccc2F)O[C@@H]2O[C@@]3(C)CC[C@H]4[C@H](C)CC[C@@H]1[C@@]24OO3: 8.52
- CC(C)(C)NC(=O)C[C@H](NC(=O)CCCNC(=O)OC(C)(C)C)C(=O)NCCNC(=O)c1cc(-c2ccccc2F)ccc1F: 8.13
- C[C@H]1[C@@H](CC(N)=O)O[C@@H]2O[C@@]3(C)CC[C@H]4[C@H](C)CC[C@@H]1[C@@]24OO3: 7.36

As a next step, examine the molecule that follows.
The recorded pEC50 for entry C[C@H]1[C@@H](CC(=O)NCCCC(=O)N[C@@H](CC(=O)NC(C)(C)C)C(=O)NCCNC(=O)c2cc(-c3ccccc3F)ccc2F)O[C@@H]2O[C@@]3(C)CC[C@H]4[C@H](C)CC[C@@H]1[C@@]24OO3 equals 8.37
